- target under test: human SCD5 (Homo sapiens, UniProt Q86SK9)
- Construct: expressed in transfected cells; host or cells: yeast strain with OLE1 deleted, plasmid-borne human SCD5 (selected in SD-Ura)
- Sequence (Q86SK9 1-330): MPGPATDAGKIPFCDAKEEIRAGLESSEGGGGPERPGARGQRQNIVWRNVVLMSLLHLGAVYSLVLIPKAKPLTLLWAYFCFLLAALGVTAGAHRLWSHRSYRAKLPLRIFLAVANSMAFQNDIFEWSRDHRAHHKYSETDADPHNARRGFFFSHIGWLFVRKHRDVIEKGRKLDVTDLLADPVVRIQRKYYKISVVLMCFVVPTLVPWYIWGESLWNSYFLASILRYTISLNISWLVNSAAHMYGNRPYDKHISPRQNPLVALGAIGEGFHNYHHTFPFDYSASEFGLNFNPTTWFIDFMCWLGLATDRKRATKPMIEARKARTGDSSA
- experiment notes: Growth inhibition of yeast strain expressing human SCD5 as sole desaturase (OLE1 deleted), OD600 readout
- Assay type: cell-based
- conditions: yeast strain expressing human SCD5 as sole desaturase; growth (OD600) after 40 h at 30° C.; read-out: SCD5 IC50
IC50 under 200 nM gets true (1), anything at or over 200 nM gets false (0).

Reference set, count: 10
Ask | # TODO verify IC50 < 200 nM strictly for this compound: CN1N=C(C(=O)Nc2ncc(Cc3ccccc3Cl)s2)CCC1=O [Compound 230]
Reply | false (0)

Ask | # TODO verify IC50 < 200 nM strictly for this compound: Cn1cccc(C(=O)Nc2ccc(Cc3cccc(Cl)c3)cn2)c1=O [Compound 330]
Reply | true (1)

Ask | # TODO verify IC50 < 200 nM strictly for this compound: Cc1cc(C(=O)Nc2ccc(Cc3ccc(F)c(F)c3)cn2)cn(C)c1=O [Compound 679]
Reply | true (1)

Ask | # TODO verify IC50 < 200 nM strictly for this compound: N#Cc1ccc(C(=O)Nc2ccc(Cc3cc(F)cc(F)c3)cn2)nc1 [Compound 493]
Reply | true (1)

Ask | # TODO verify IC50 < 200 nM strictly for this compound: N#Cc1cc(F)cc(Cc2ccc(NC(=O)c3ccnnc3)nc2)c1 [Compound 656]
Reply | true (1)

Ask | # TODO verify IC50 < 200 nM strictly for this compound: O=C(Nc1ncc(Cc2cccc(F)c2)s1)C1=NN(CCF)C(=O)CC1 [Compound 386]
Reply | false (0)

Ask | # TODO verify IC50 < 200 nM strictly for this compound: Cn1ccc(C(=O)Nc2ccc(Cc3ccc(F)c(F)c3)cn2)cc1=O [Compound 515]
Reply | false (0)

Ask | # TODO verify IC50 < 200 nM strictly for this compound: COc1ncc(C(=O)Nc2ccc(Cc3cccc(Cl)c3)cn2)cn1 [Compound 649]
Reply | false (0)

Ask | # TODO verify IC50 < 200 nM strictly for this compound: CN1N=C(C(=O)Nc2ccc(NCc3cccc(F)c3)cn2)CCC1=O [Compound 281]
Reply | false (0)

Ask | # TODO verify IC50 < 200 nM strictly for this compound: CNC(=O)c1ccnc(C(=O)Nc2ccc(Cc3cccc(F)c3)cn2)c1 [Compound 578]
Reply | false (0)

New cases:
Ask | # TODO verify IC50 < 200 nM strictly for this compound: CNC(=O)c1ccc(C(=O)Nc2ccc(Cc3cccc(Cl)c3)cn2)cn1 [Compound 592]
Reply | false (0)

Ask | # TODO verify IC50 < 200 nM strictly for this compound: CCCn1nc(C(=O)Nc2ccc(Cc3cccc(Cl)c3)nn2)ccc1=O [Compound 257]
Reply | false (0)

Ask | # TODO verify IC50 < 200 nM strictly for this compound: Cn1nc(C(=O)Nc2ccc(CC3CCCCC3)cn2)ccc1=O [Example 38]
Reply | false (0)

Ask | # TODO verify IC50 < 200 nM strictly for this compound: O=C(Nc1ccc(Cc2cccc(Cl)c2)cn1)c1cnc(CO)c(F)c1 [Compound 290]
Reply | true (1)

Ask | # TODO verify IC50 < 200 nM strictly for this compound: Cn1nc(NC(=O)c2ccc(Cc3cccc(Cl)c3)nn2)ccc1=O [Compound 254]
Reply | false (0)

Ask | # TODO verify IC50 < 200 nM strictly for this compound: Cn1cccc(C(=O)Nc2ccc(Cc3ccc(F)c(F)c3)cn2)c1=O [Compound 328]
Reply | true (1)

Ask | # TODO verify IC50 < 200 nM strictly for this compound: Cn1cc(C(=O)N[C@H]2CC[C@@H](Cc3cccc(Cl)c3)CC2)ccc1=O [Compound 465]
Reply | false (0)
